Values compiled from ChEMBL document CHEMBL3045262.

# Tested on: Spodoptera litura
# TEST PROTOCOL: Larvicidal activity against third-instar larvae of Spodoptera litura infested in soybean seedling assessed as mortality at 2 ppm sprayed 6 days prior to infestation measured after 5 days
# Type: functional
MEASURED ATTRIBUTE: mortality at 2 ppm

Please review the following examples before continuing.
O=C(NC(=O)c1c(F)cccc1F)Nc1cc(Cl)c(S(=O)(=O)C(F)(F)C(F)Cl)cc1Cl (centres undefined)
95%
O=C(NC(=O)c1c(F)cccc1F)Nc1ccc(SC(F)(F)C(F)F)cc1
20%
O=C(NC(=O)c1c(F)cccc1F)Nc1ccc(SC(F)(F)C(F)Cl)cc1Cl (centres undefined)
100%
O=C(NC(=O)c1c(F)cccc1F)Nc1ccc(SC(F)(F)C(F)Cl)cc1Br (centres undefined)
100%
O=C(NC(=O)c1c(F)cccc1F)Nc1ccc(SC(F)(F)C(F)F)c(Cl)c1Cl
100%
Cc1c(NC(=O)NC(=O)c2c(F)cccc2F)ccc(SC(F)(F)C(F)F)c1C
100%
O=C(NC(=O)c1c(F)cccc1F)Nc1ccc(Cl)cc1 [DIFLUBENZURON]
15%
O=C(NC(=O)c1c(F)cccc1F)Nc1cc(Cl)c(SC(F)(F)C(F)Cl)cc1Cl (centres undefined)
100%

Switching to the query record.
Entry O=C(NC(=O)c1c(F)cccc1F)Nc1ccc([S+]([O-])C(F)(F)C(F)F)cc1 (centres undefined) — recorded mortality at 2 ppm = 15%

###

# Lookup of reported mortality at 2 ppm keyed by entry
# Test system: Spodoptera litura
# TEST PROTOCOL: Larvicidal activity against third-instar larvae of Spodoptera litura infested in soybean seedling assessed as mortality at 2 ppm sprayed 6 days prior to infestation measured after 5 days
# Format: functional
Field: numeric (%). Do not append units.

Please review the following examples before continuing.
O=C(NC(=O)c1c(F)cccc1F)Nc1ccc(SC(F)(F)C(F)Cl)cc1 (centres undefined)
45
Cc1cc(SC(F)(F)C(F)Cl)c(C)cc1NC(=O)NC(=O)c1c(F)cccc1F (centres undefined)
100
O=C(NC(=O)c1c(F)cccc1F)Nc1ccc(SC(F)(F)C(F)F)cc1Br
100
O=C(NC(=O)c1c(F)cccc1F)Nc1cc(Cl)c(S(=O)(=O)C(F)(F)C(F)F)cc1Cl
95
Cc1cc(S(=O)(=O)C(F)(F)C(F)Cl)ccc1NC(=O)NC(=O)c1c(F)cccc1F (centres undefined)
100
O=C(NC(=O)c1c(F)cccc1F)Nc1ccc(S(=O)(=O)C(F)(F)C(F)F)cc1Br
85
O=C(NC(=O)c1c(F)cccc1F)Nc1ccc(S(=O)(=O)C(F)(F)C(F)F)c(Cl)c1
35
Cc1cc(S(=O)(=O)C(F)(F)C(F)Cl)c(C)cc1NC(=O)NC(=O)c1c(F)cccc1F (centres undefined)
100

Switching to the query record.
Entry O=C(NC(=O)c1c(F)cccc1F)Nc1ccc([S+]([O-])C(F)(F)C(F)F)c(Cl)c1Cl (centres undefined) — recorded mortality at 2 ppm = 100

###

# System: Spodoptera litura
# TEST PROTOCOL: Larvicidal activity against third-instar larvae of Spodoptera litura infested in soybean seedling assessed as mortality at 2 ppm sprayed 6 days prior to infestation measured after 5 days
# Assay type: functional
# Lookup of reported mortality at 2 ppm keyed by entry

O=C(NC(=O)c1c(F)cccc1F)Nc1cc(Cl)c([S+]([O-])C(F)(F)C(F)Cl)cc1Cl (centres undefined)
100%
Cc1cc([S+]([O-])C(F)(F)C(F)F)ccc1NC(=O)NC(=O)c1c(F)cccc1F (centres undefined)
100%
Cc1cc(NC(=O)NC(=O)c2c(F)cccc2F)ccc1SC(F)(F)C(F)F
100%

Entry O=C(NC(=O)c1c(F)cccc1F)Nc1ccc(S(=O)(=O)C(F)(F)C(F)Cl)cc1F (centres undefined) — recorded mortality at 2 ppm = 100%

Entry O=C(NC(=O)c1c(F)cccc1F)Nc1ccc([S+]([O-])C(F)(F)C(F)Cl)c(Cl)c1Cl (centres undefined) — recorded mortality at 2 ppm = 100%

###

# Tested on: Spodoptera litura
# TEST PROTOCOL: Larvicidal activity against third-instar larvae of Spodoptera litura infested in soybean seedling assessed as mortality at 2 ppm sprayed 6 days prior to infestation measured after 5 days
# Type: functional
# Lookup of reported mortality at 2 ppm keyed by entry
Field: numeric (%). Do not append units.

Entry Cc1c(NC(=O)NC(=O)c2c(F)cccc2F)ccc([S+]([O-])C(F)(F)C(F)Cl)c1C (centres undefined) — recorded mortality at 2 ppm = 100

###

# Lookup of reported mortality at 2 ppm keyed by entry
# System: Spodoptera litura
# TEST PROTOCOL: Larvicidal activity against third-instar larvae of Spodoptera litura infested in soybean seedling assessed as mortality at 2 ppm sprayed 6 days prior to infestation measured after 5 days
# Assay type: functional
Field: numeric (%). Do not append units.

O=C(NC(=O)c1c(F)cccc1F)Nc1ccc(S(=O)(=O)C(F)(F)C(F)Cl)c(Cl)c1Cl (stereo not drawn)
100
O=C(NC(=O)c1c(F)cccc1F)Nc1ccc(S(=O)(=O)C(F)(F)C(F)Cl)cc1 (stereo not drawn)
0

Switching to the query record.
Entry O=C(NC(=O)c1c(F)cccc1F)Nc1ccc(S(=O)(=O)C(F)(F)C(F)Br)cc1Br (stereo not drawn) — recorded mortality at 2 ppm = 95
